Reported inhibition values for a set of compounds
Biological target: NEDD8-conjugating enzyme Ubc12 (Homo sapiens) + NEDD8-activating enzyme E1 regulatory subunit (Homo sapiens) (UniProt P61081+Q13564)
Sequence (P61081 whole entry, looked up): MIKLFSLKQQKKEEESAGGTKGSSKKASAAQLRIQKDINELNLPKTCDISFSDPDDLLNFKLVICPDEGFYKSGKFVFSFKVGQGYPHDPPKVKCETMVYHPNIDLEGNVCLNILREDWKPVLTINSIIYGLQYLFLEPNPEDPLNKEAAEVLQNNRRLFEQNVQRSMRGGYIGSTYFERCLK
Sequence (Q13564 whole entry, looked up): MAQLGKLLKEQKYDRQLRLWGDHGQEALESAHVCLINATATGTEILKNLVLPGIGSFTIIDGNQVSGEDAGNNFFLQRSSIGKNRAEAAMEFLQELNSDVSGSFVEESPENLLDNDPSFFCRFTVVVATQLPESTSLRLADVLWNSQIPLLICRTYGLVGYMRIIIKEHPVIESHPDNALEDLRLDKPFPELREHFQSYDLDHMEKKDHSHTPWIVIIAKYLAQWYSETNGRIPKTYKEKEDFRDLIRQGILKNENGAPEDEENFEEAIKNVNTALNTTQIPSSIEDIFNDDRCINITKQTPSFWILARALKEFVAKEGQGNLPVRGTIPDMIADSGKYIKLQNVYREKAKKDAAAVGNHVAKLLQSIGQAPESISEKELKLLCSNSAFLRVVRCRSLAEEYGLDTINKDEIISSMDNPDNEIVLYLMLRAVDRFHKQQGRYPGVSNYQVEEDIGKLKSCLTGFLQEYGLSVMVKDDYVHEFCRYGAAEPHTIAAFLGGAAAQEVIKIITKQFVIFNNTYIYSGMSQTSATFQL
Experiment: inhibitors of cullin neddylation, primary screen, biochemical, TR-FRET, uHTS, NAE and Ubc12 (AID 651699)
Conditions: at 25 µM, hits give high values
In all, about 360,000 compounds went through this assay and about 2,100 (0.58%) were called active. What follows is part of a selection rich in actives, with near analogues and random picks from the rest.

COMPOUND: CCOC(=O)[C@]12CCC=C1N(Cc1ccco1)C(=O)[C@H](CC(=O)NCc1cccc(C(F)(F)F)c1)C2
inhibition: 5.67% (inactive)
//
COMPOUND: CCC(C)c1ccc(NC(=S)NCc2ccccn2)cc1 (stereo not given)
inhibition: 3.21% (inactive)
//
COMPOUND: O=C1c2cccc(OCC(=O)N3N=C(c4cccs4)CC3c3ccc(F)cc3)c2CCN1Cc1ccccc1 (stereo not given)
inhibition: -25.8% (inactive)
//
COMPOUND: Cc1ccc(C2=NN(C(=O)COc3ncnc4ccccc34)C(c3ccco3)C2)cc1 (stereo not given)
inhibition: -119% (inactive)

Could you now look at the following compound, please?
# input compound: `CCOC(=O)c1cc(C(=O)Nc2ccc(S(=O)(=O)Nc3ccc(OC)cc3)cc2)nn1C` ; wanted: its inhibition
-1.03% (inactive)

----------
Form field: inhibition (one value per entry).
Molecular target: NEDD8-conjugating enzyme Ubc12 (Homo sapiens) + NEDD8-activating enzyme E1 regulatory subunit (Homo sapiens) (UniProt P61081+Q13564)
Test: inhibitors of cullin neddylation, primary screen, biochemical, TR-FRET, uHTS, NAE and Ubc12 (AID 651699)
Conditions: at 25 µM, hits give high values
Hit rate of the full screen: of about 360,000 compounds, about 2,100 (0.58%) were called active. This excerpt belongs to a sample that is enriched for actives.
Reply with just the number (in %).

COMPOUND: CCOc1cc(/C=N/NC(=O)c2ccncc2)cc(Br)c1O
UNITS_OF_MEASURE: %
inhibition: -8.9
--
COMPOUND: COCC(=O)N(C)[C@H]1C[C@H]2c3cc(Oc4ccccc4C)ccc3CCN2C(=O)[C@H]1[C@H](C)O
UNITS_OF_MEASURE: %
inhibition: 2.1
--
COMPOUND: CCC(C)(C(=O)NC1CCCC1)N(C(=O)CNC(C)=O)c1ccc(C)cc1 (configuration not stated)
UNITS_OF_MEASURE: %
inhibition: -5.51
--
COMPOUND: COc1ccc(CCN2C(=O)C3CC=C(C)CC3C2=O)cc1OC (configuration not stated)
UNITS_OF_MEASURE: %
inhibition: 1.1
--
COMPOUND: COc1cc(S(=O)(=O)N2CCOCC2)ccc1NC(=O)COc1ccc(N(C)S(=O)(=O)c2ccc(C)cc2)cc1
UNITS_OF_MEASURE: %
inhibition: -8.3
--
COMPOUND: COc1ccc2[nH]c(C(=O)N/N=C/c3cc(OC)c(OC)c(OC)c3)cc2c1
UNITS_OF_MEASURE: %
inhibition: 59.3
--
COMPOUND: O=C(N[C@H]1C/C=C\C(c2ccc(F)cc2)N(Cc2ccccc2)C(=O)C1)OCC1c2ccccc2-c2ccccc21 (some centres not stated)
UNITS_OF_MEASURE: %
inhibition: -23.7
--
COMPOUND: COc1ccccc1N1CCN(C(=O)C(=O)N/N=C/c2ccccc2F)CC1
UNITS_OF_MEASURE: %
inhibition: -4.11

Please report the recorded inhibition for `CCCCC(=O)N(C)c1c(CC)nc2c(OCc3ccc(Cl)cc3Cl)cccn12` .
8.51

Try this compound too: `CCOc1ccc2[nH]c(C(=O)N/N=C/c3cccc(OC)c3OC)cc2c1`
45.1

----------
Target: NEDD8-conjugating enzyme Ubc12 (Homo sapiens) + NEDD8-activating enzyme E1 regulatory subunit (Homo sapiens) (UniProt P61081+Q13564)
Assay: inhibitors of cullin neddylation, primary screen, biochemical, TR-FRET, uHTS, NAE and Ubc12 (AID 651699)
Settings: at 25 µM
In all, about 360,000 compounds went through this assay and about 2,100 (0.58%) were called active. Cut-off read from the data, not from the text of the source: active = inhibition above about 36%; inactive = the rest. The sample holds actives, similar compounds and a random draw of the others, so the mix is not that of the screen.
Log the outcome using a class from YES for active, NO for inactive

So what was the verdict on `N#Cc1ccccc1CN1C(=O)S/C(=C/c2cccn2-c2cccc(C(=O)O)c2)C1=O` in this test?
NO

----------
Target: NEDD8-conjugating enzyme Ubc12 (Homo sapiens) + NEDD8-activating enzyme E1 regulatory subunit (Homo sapiens) (UniProt P61081+Q13564)
Test: inhibitors of cullin neddylation, primary screen, biochemical, TR-FRET, uHTS, NAE and Ubc12 (AID 651699)
Conditions: at 25 µM, hits give high values
About 2,100 (0.58%) of roughly 360,000 compounds were called active. Shown is part of a subset that was picked to be rich in actives.
MEASUREMENT_KIND: inhibition (%)
API: value field is a number in %; no unit string.

Look over these answered cases.
COMPOUND: CCOc1ccc2[nH]c(=O)c(CN(Cc3nnnn3Cc3ccccc3)CC3CCCO3)cc2c1 (configuration not stated)
UNITS_OF_MEASURE: %
inhibition: 48

COMPOUND: O=C(O)C1C2C=CC(C2)C1C(=O)NCc1ccccc1 (configuration not stated)
UNITS_OF_MEASURE: %
inhibition: -4.12

COMPOUND: CCOCCCNC(=O)C(NC(=O)c1ccccc1O)c1ccccc1 (configuration not stated)
UNITS_OF_MEASURE: %
inhibition: 46.5

COMPOUND: CC(C(=O)NC1CCCCC1)N1C(=O)c2cccc3cccc1c23 (configuration not stated)
UNITS_OF_MEASURE: %
inhibition: 39.6

COMPOUND: CCOC(=O)c1cnc2nc(SCc3ccccc3Cl)[nH]n2c1=O
UNITS_OF_MEASURE: %
inhibition: 36.4

Fill in the blank: the reported inhibition of `CC(=O)c1ccc(NC(=O)c2ccc(-n3cncn3)c([N+](=O)[O-])c2)cc1` is ____.
-41.9

Next record, please: Cc1ccnc(NC(=O)C(C)N2C(=O)c3ccccc3C2=O)c1 (configuration not stated)
9.23

Also, CC(=O)N1c2ccc(S(=O)(=O)N(C)CC(=O)N(C)Cc3ccccc3)cc2CC1C (configuration not stated) please.
1.96

`COc1cccc(/C=N/NC(=O)C(=O)N2CCCC2)c1` ?
-14.6

Lookup Cc1ccc(S(=O)(=O)N(Cc2cc3ccccc3[nH]c2=O)CC2CCCO2)cc1 (configuration not stated)
11.6

Now this one: `COc1ccccc1-c1cc(NC(C)=O)c2ncc(-c3ccc(F)cc3)n2c1`
38.6

// same read-out, input: CC(Sc1nc2c([nH]c3ccccc32)c(=O)n1C)c1ccccc1 (configuration not stated)
-4.19

Same question for COc1ccc2[nH]c(=O)c(CN(CC3CCCO3)C(=O)Nc3ccccc3)cc2c1 (configuration not stated) please.
21.1

Follow-up entry: CCOC(=O)C1=C(N)N2C(=O)C(C)SC2=C(C(=O)OCC)C1c1cc(OC)c(OC)c(OC)c1 (configuration not stated)
-1.53

Thanks! And CCOCCCNC(=O)C(NC(=O)CNC(=O)c1ccccc1)c1ccc(C)cc1 (configuration not stated) ?
2.03

Can you handle CC(C(=O)NC1CCCC1)N1CCN(S(=O)(=O)c2ccccc2Cl)CC1 (configuration not stated) next?
-0.01

Field entry: COc1ccc(N2C(=O)CC(Sc3n[nH]c(-c4ccc(C)cc4)n3)C2=O)cc1 (configuration not stated)
0.38

Record: `COc1ccccc1N(C)S(=O)(=O)c1ccc(Cl)c(C(=O)Nc2ccncc2)c1`
13.9

How about `Cc1nn2c(=O)cc(COC(=O)c3ccc(NC(=O)C(C)(C)C)cc3)nc2s1` ?
-2.19

And then `COc1cccc(OC)c1C(=O)Nc1ccc(Cc2ccncc2)cc1` , what is it?
7.29

----------
Target: NEDD8-conjugating enzyme Ubc12 (Homo sapiens) + NEDD8-activating enzyme E1 regulatory subunit (Homo sapiens) (UniProt P61081+Q13564)
Assay: inhibitors of cullin neddylation, primary screen, biochemical, TR-FRET, uHTS, NAE and Ubc12 (AID 651699)
Settings: at 25 µM, hits give high values
Hit rate of the full screen: of about 360,000 compounds, about 2,100 (0.58%) were called active. For the sample, actives were picked, then their nearest neighbours and some compounds at random.
Reported inhibition by item:
Dear colleague, please return just the value in %, with no unit written.

Reference set (3 entries):
COMPOUND: CCOc1cc(C2C(C(=O)OC)=CN(C3CCCC3)C=C2C(=O)OC)cc(Br)c1O
VALUE: -306
//
COMPOUND: O=C1Nc2ccc([N+](=O)[O-])cc2C1=Nc1cccc(CO)c1
VALUE: -19.4
//
COMPOUND: Cc1cccc(CC(=O)Nc2c3c(nn2-c2cccc(Cl)c2)CS(=O)C3)c1 (stereo unspecified)
VALUE: 4.67

What value of inhibition has been recorded for this entry: `COc1ccc(-c2c(C#Cc3ccsc3)c3cc(-c4ccc(CN5CCOCC5)cc4)ccc3n2C)cc1`
22.8

Queued: `CC(C)Cn1cnc2c1c(=O)n(CC(=O)NN)c(=O)n2Cc1ccccc1`
3.73

For CCOc1ccc2[nH]c(=O)c(C(c3nnnn3CCOC)N3CCOCC3)cc2c1 (stereo unspecified) then?
46

Next record, please: `CC(C)(C)OC(=O)C[C@@H]1C/C=C\C[C@@H](CC(=O)N[C@H](CO)Cc2ccccc2)C(=O)NCCOC1=O`
-4.28

Likewise for `COc1c(C(C)C)oc2cc3oc(=O)ccc3cc12` ?
36.1

Subsequent entry: `COc1cccc(NC(=O)c2nn(-c3ccc(OC)cc3OC)c(=O)c3ccccc23)c1`
-9.58

Also check CC1Cc2ccccc2N1CC(=O)Nc1ccc2c(c1)OC(F)(F)O2 (stereo unspecified)
-5.99

Next record, please: CCCC(=O)N1CCC1(C)C(=O)NS(=O)(=O)c1ccc(Cl)cc1 (stereo unspecified)
5.26

Now give it for `O=C(NCc1cccnc1)Nc1cccc(NC(=O)NCc2cccnc2)c1F` too.
2.41

What would you report for `COc1ccc([N+](=O)[O-])cc1NC(=O)COC(=O)/C=C/c1ccco1` ?
-34

Same for `CCOc1ccc(NC(=O)c2ccc(CSc3nnnn3C)cc2)cc1`
1.1

Try the compound `COC(=O)C1=CN(Cc2ccc(OC)cc2)C=C(C(=O)OC)C1c1ccc(O)c(OC)c1`
40.7
